Record form. Attribute: self-splicing fitness (ln). Fill in for each entry.
assay: self-splicing fitness, log relative to wild type (ln ratio); higher = more splicing; Tetrahymena group I intron in knt gene, E. coli kanamycin selection, DiMSum; sequences stand for … in CUCUCU…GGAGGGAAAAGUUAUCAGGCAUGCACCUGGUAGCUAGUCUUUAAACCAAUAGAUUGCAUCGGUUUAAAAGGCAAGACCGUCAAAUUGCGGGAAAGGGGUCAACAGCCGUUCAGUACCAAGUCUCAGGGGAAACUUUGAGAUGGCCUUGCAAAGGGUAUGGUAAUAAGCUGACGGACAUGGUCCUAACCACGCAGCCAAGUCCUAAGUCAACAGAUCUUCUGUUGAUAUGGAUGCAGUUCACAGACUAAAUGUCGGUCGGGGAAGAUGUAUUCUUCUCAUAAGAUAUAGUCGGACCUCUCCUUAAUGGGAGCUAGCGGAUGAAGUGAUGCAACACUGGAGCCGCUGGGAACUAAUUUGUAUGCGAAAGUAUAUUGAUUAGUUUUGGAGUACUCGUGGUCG; conditions: 37 °C;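 note: selection with 25 µg/mL kanamycin versus none on LB agar overnight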
The response must contain the number and no unit.

// query self-splicing fitness (ln) value for entry CUUGAGCAAUAUUACGAAAC
-2.78

Now this one: AUUUAGCAAUAUUACGAGCU
-0.00846

Now this one: UACUAGCAAUAUUACGGCAC
-1.73

Now this one: GUUAAGCAAUAUUACGAUAU
-0.0864

Now this one: CGCAAGCAAUAUUACGUUCC
-1.06

Now this one: CGACAGCAAUAUUACGACGU
0.0477

Now this one: AGAAAGCAAUAUUACGAUUA
-0.183

Now this one: GGCCAGCAAUAUUACGUGAA
-0.271

Now this one: UUCGAGCAAUAUUACGGGCG
-1.01

Now this one: CUGUAGCAAUAUUACGUGUA
-2.05

Now this one: GUCAAGCAAUAUUACGAUCC
-0.693

Now this one: CGGGAGCAAUAUUACGCGCG
-0.901

Now this one: CGGUAGCAAUAUUACGCUUC
-0.894

Now this one: AAGCAGCAAUAUUACGCGCC
-1.24

====

assay: self-splicing fitness, log relative to wild type (ln ratio); higher = more splicing; Tetrahymena group I intron in knt gene, E. coli kanamycin selection, DiMSum; sequences stand for … in CUCUCU…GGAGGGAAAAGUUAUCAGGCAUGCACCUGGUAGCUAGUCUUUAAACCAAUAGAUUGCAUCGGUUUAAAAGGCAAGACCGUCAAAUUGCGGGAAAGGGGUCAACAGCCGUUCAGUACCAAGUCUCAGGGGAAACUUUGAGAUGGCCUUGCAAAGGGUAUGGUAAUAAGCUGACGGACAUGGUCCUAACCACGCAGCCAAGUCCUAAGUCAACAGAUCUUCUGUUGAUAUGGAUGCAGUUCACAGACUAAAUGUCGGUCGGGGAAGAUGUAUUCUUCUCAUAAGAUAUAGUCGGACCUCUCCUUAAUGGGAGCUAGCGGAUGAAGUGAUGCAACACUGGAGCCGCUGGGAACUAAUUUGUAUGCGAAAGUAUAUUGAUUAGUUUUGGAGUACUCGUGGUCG; conditions: 30 °C
Readout Label: self-splicing fitness (ln)
The response must contain the number and no unit.

// query self-splicing fitness (ln) value for entry GCUCAGCAAUAUUACGCGUC
-0.866

Now this one: ACGGAGCAAUAUUACGGGCC
-2.53

Now this one: UUCGAGCAAUAUUACGUUUA
-2

Now this one: GUCAAGCAAUAUUACGGAAA
-2.28

Now this one: ACUCAGCAAUAUUACGCGGA
-2.79

Now this one: ACUGAGCAAUAUUACGGCUU
-3.22

Now this one: UUCCAGCAAUAUUACGUUCA
-0.829

Now this one: CUGAAGCAAUAUUACGGAUU
-4.16

Now this one: CGCGAGCAAUAUUACGGCAG
-0.761

Now this one: AAUGAGCAAUAUUACGCAAU
-2.49

Now this one: GUUUAGCAAUAUUACGUACU
-0.0508

Now this one: AACUAGCAAUAUUACGGUCA
-0.313

Now this one: CUCUAGCAAUAUUACGUCUC
-3.06

Now this one: GGGAAGCAAUAUUACGCAUU
-2.94

Now this one: CCCCAGCAAUAUUACGCUUC
-4.6

Now this one: GAGGAGCAAUAUUACGCGGA
-3.27

Now this one: UCAAAGCAAUAUUACGUGGU
-4.25

Now this one: UGUUAGCAAUAUUACGGGGA
-2.84

Now this one: GCCAAGCAAUAUUACGACCG
-3.81

Now this one: GAUGAGCAAUAUUACGAUGC
-1.35

Now this one: UUUUAGCAAUAUUACGCUGG
-3.74

Now this one: GUCAAGCAAUAUUACGCUUG
-4.27

Now this one: UUACAGCAAUAUUACGUAAA
-1.59

Now this one: UCCAAGCAAUAUUACGUCAU
-3.09

Now this one: GGCUAGCAAUAUUACGCACG
-0.276

Now this one: GAGAAGCAAUAUUACGCCCU
-0.493

Now this one: AUCCAGCAAUAUUACGGACC
-1.71

Now this one: GAGAAGCAAUAUUACGAAGC
-3.21

Now this one: ACCUAGCAAUAUUACGUUAC
-3.6

Now this one: CCGCAGCAAUAUUACGAUGC
-4.08

Now this one: GUACAGCAAUAUUACGCCGU
-2.95

Now this one: CUCCAGCAAUAUUACGACUA
-2.47

Reference for the values: the supplement of paper PMC7877785
